EXPERIMENTAL SYSTEM: rat orexin-1 receptor (Rattus norvegicus (Rat), UniProt P56718)
Sequence (P56718 whole entry): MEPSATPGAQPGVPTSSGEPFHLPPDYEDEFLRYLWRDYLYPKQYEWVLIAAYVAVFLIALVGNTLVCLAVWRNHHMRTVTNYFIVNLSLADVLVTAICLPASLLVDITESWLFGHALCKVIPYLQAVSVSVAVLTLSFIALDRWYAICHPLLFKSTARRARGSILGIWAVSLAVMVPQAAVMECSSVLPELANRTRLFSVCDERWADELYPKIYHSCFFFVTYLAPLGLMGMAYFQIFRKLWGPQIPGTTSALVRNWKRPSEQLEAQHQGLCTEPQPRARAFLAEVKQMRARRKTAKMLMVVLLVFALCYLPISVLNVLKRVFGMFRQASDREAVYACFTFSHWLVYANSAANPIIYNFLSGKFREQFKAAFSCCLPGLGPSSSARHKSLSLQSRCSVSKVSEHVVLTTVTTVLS
TEST: FLIPR Ca2+ Flux Assay, orexin-1 receptor
Type: cell-based
EXPERIMENTAL CONDITIONS: CHO cells expressing the rat orexin-1 receptor; agonist 70 pM Ala-6,12 human orexin-A; read-out: hOX1R FLIPR IC50
Provide the reported IC50 of each item.
Unit nM implied. Number only.

The value of IC50 measured for the molecule COc1ccc(C(=O)N2C[C@H](Oc3nccc(C#N)c3C)CC[C@H]2C)c(C2CC2)c1 [Example 52] turned out to be 7030

The value of IC50 measured for the molecule Cc1cccc(-n2nccn2)c1C(=O)N1C[C@H](Oc2nccc(C#N)c2C)CC[C@H]1C [Example 15] turned out to be 693

The value of IC50 measured for the molecule COc1c(C#N)ccnc1O[C@@H]1CC[C@@H](C)N(C(=O)c2c(F)cccc2-n2nccn2)C1 [Example 100] turned out to be 1440

The value of IC50 measured for the molecule Cc1ccc(-n2nccn2)c(C(=O)N2C[C@H](Oc3nccc(C#N)c3C)CC[C@H]2C)c1 [Example 6] turned out to be 292

The value of IC50 measured for the molecule COc1c(C#N)ccnc1O[C@@H]1CC[C@@H](C)N(C(=O)c2cccc(C)c2-n2nccn2)C1 [Example 101] turned out to be 957

The value of IC50 measured for the molecule Cc1c(C#N)ccnc1O[C@@H]1CC[C@@H](C)N(C(=O)c2c(F)cccc2-n2nccn2)C1 [Example 11] turned out to be 611

The value of IC50 measured for the molecule COc1ccc(C(=O)N2C[C@H](Oc3nccc(C#N)c3OC)CC[C@H]2C)c(-c2ncccn2)n1 [Example 113] turned out to be 10000

The value of IC50 measured for the molecule COc1c(C#N)ccnc1O[C@@H]1CC[C@@H](C)N(C(=O)c2ccsc2-c2ncccn2)C1 [Example 108] turned out to be 713

The value of IC50 measured for the molecule COc1ccc(C(=O)N2C[C@H](Oc3nccc(C#N)c3C)CC[C@H]2C)c(-c2ccnn2C)n1 [Example 79] turned out to be 10000

The value of IC50 measured for the molecule COc1c(C#N)ccnc1O[C@@H]1CC[C@@H](C)N(C(=O)c2cccc(F)c2-n2nccn2)C1 [Example 97] turned out to be 1100

The value of IC50 measured for the molecule Cc1c(C#N)ccnc1O[C@@H]1CC[C@@H](C)N(C(=O)c2sccc2-c2nccs2)C1 [Example 37] turned out to be 2270

The value of IC50 measured for the molecule Cc1nc(C(=O)N2C[C@H](Oc3nccc(C#N)c3C)CC[C@H]2C)c(-c2ccc(F)cc2)s1 [Example 41] turned out to be 1200

---

EXPERIMENTAL SYSTEM: human orexin-2 receptor (Homo sapiens (Human), UniProt O43614)
Sequence (O43614 whole entry): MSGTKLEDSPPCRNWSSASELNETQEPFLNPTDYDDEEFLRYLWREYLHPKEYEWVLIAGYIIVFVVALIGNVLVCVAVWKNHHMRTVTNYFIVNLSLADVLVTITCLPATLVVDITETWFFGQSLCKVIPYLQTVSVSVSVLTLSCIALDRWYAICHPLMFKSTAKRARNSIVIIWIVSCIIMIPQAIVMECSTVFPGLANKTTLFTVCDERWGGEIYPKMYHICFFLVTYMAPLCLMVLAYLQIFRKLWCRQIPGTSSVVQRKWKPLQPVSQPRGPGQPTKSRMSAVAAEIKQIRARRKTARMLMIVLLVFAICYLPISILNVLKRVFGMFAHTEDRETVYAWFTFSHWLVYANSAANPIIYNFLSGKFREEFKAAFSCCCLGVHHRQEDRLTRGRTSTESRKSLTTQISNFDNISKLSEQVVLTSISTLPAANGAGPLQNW
TEST: FLIPR Ca2+ Flux Assay, orexin-2 receptor
Assay type: cell-based
EXPERIMENTAL CONDITIONS: read-out: hOX2R FLIPR IC50
PROPERTY LABEL: IC50 (µM)
Unit µM implied. Number only.

The value of IC50 measured for the compound "COc1c(C#N)ccnc1O[C@@H]1CC[C@@H](C)N(C(=O)c2cccc(F)c2-c2ncccn2)C1" turned out to be 0.026

---

Provide the reported IC50 of each item.
EXPERIMENTAL SYSTEM: human orexin-2 receptor (Homo sapiens (Human), UniProt O43614)
TEST: FLIPR Ca2+ Flux Assay, orexin-2 receptor
Assay type: cell-based
EXPERIMENTAL CONDITIONS: CHO cells expressing the human orexin-2 receptor; agonist 70 pM Ala-6,12 human orexin-A; read-out: hOX2R FLIPR IC50
Unit nM implied. Number only.

The value of IC50 measured for the compound "CCc1ccccc1C(=O)N1C[C@H](Oc2nccc(C#N)c2C)CC[C@H]1C" turned out to be 31

The value of IC50 measured for the compound "Cc1c(C#N)ccnc1O[C@@H]1CC[C@@H](C)N(C(=O)c2cc(F)ccc2-n2nccn2)C1" turned out to be 11

The value of IC50 measured for the compound "CCc1c(C#N)ccnc1O[C@@H]1CC[C@@H](C)N(C(=O)c2ccccc2-n2nccn2)C1" turned out to be 8

The value of IC50 measured for the compound "Cc1c(C#N)ccnc1O[C@@H]1CC[C@@H](C)N(C(=O)c2sccc2-c2nccs2)C1" turned out to be 11

The value of IC50 measured for the compound "Cc1c(C#N)ccnc1O[C@@H]1CC[C@@H](C)N(C(=O)c2ccccc2N2CCCC2)C1" turned out to be 29

The value of IC50 measured for the compound "Cc1c(C#N)ccnc1O[C@@H]1CC[C@@H](C)N(C(=O)c2ccncc2-c2ccccc2)C1" turned out to be 69

The value of IC50 measured for the compound "Cc1c(C#N)ccnc1O[C@@H]1CC[C@@H](C)N(C(=O)c2ccccc2-c2nccs2)C1" turned out to be 8

The value of IC50 measured for the compound "COc1c(C#N)ccnc1O[C@@H]1CC[C@@H](C)N(C(=O)c2cc(F)ccc2-n2nccn2)C1" turned out to be 15

The value of IC50 measured for the compound "Cc1c(C#N)ccnc1O[C@@H]1CC[C@@H](C)N(C(=O)c2ccccc2-c2cnn(C)c2)C1" turned out to be 20

The value of IC50 measured for the compound "COc1c(C#N)ccnc1O[C@@H]1CC[C@@H](C)N(C(=O)c2ccc(F)cc2-n2nccn2)C1" turned out to be 19

The value of IC50 measured for the compound "C=Cc1ccc(C(=O)N2C[C@H](Oc3nccc(C#N)c3C)CC[C@H]2C)c(-n2nccn2)n1" turned out to be 88

The value of IC50 measured for the compound "COc1ccc(C(=O)N2C[C@H](Oc3nccc(C#N)c3C)CC[C@H]2C)c(-c2ccncc2)n1" turned out to be 65

The value of IC50 measured for the compound "Cc1nsc(-c2ccccc2)c1C(=O)N1C[C@H](Oc2nccc(C#N)c2C)CC[C@H]1C" turned out to be 82

The value of IC50 measured for the compound "COc1ccc(C(=O)N2C[C@H](Oc3nccc(C#N)c3C)CC[C@H]2C)c(SC)n1" turned out to be 22

The value of IC50 measured for the compound "Cc1c(C#N)ccnc1O[C@@H]1CC[C@@H](C)N(C(=O)c2ccccc2OC(F)(F)F)C1" turned out to be 16

The value of IC50 measured for the compound "C[C@@H]1CC[C@@H](Oc2nccc(C#N)c2Cl)CN1C(=O)c1ccccc1-n1nccn1" turned out to be 8

---

Provide the reported IC50 of each item.
EXPERIMENTAL SYSTEM: human orexin-2 receptor (Homo sapiens (Human), UniProt O43614)
TEST: FLIPR Ca2+ Flux Assay, orexin-2 receptor
Format: cell-based
EXPERIMENTAL CONDITIONS: CHO cells expressing the human orexin-2 receptor; agonist 70 pM Ala-6,12 human orexin-A; read-out: hOX2R FLIPR IC50
Unit nM implied. Number only.

The value of IC50 measured for the compound Cc1c(C#N)ccnc1O[C@@H]1CC[C@@H](C)N(C(=O)c2cc(F)ccc2-c2ccccn2)C1 [Example 56] turned out to be 30

The value of IC50 measured for the compound Cc1c(C#N)ccnc1O[C@@H]1CC[C@@H](C)N(C(=O)c2ccc(OCF)cc2-n2nccn2)C1 [Example 64] turned out to be 35

The value of IC50 measured for the compound Cc1c(C#N)ccnc1O[C@@H]1CC[C@@H](C)N(C(=O)c2ccsc2-c2cscn2)C1 [Example 31] turned out to be 11

The value of IC50 measured for the compound Cc1c(C#N)ccnc1O[C@@H]1CC[C@@H](C)N(C(=O)c2ccccc2-c2ncco2)C1 [Example 27] turned out to be 17

---

EXPERIMENTAL SYSTEM: rat orexin-1 receptor (Rattus norvegicus (Rat))
TEST: FLIPR Ca2+ Flux Assay, orexin-1 receptor
Type: cell-based
EXPERIMENTAL CONDITIONS: CHO cells expressing the rat orexin-1 receptor; agonist 70 pM Ala-6,12 human orexin-A; read-out: hOX1R FLIPR IC50
pIC50: −log10 of the molar value.
We use 6 as the dividing line for pIC50: on or above the line is Y, below is N.

Enquiry: Reported pIC50 reaches at least 6 for "Cc1c(C#N)ccnc1O[C@@H]1CC[C@@H](C)N(C(=O)c2cnccc2-n2nccn2)C1" ?
Return: N

Enquiry: Reported pIC50 reaches at least 6 for "Cc1nc(C(=O)N2C[C@H](Oc3nccc(C#N)c3C)CC[C@H]2C)c(-c2ccccc2)s1" ?
Return: Y

Enquiry: Reported pIC50 reaches at least 6 for "Cc1c(C#N)ccnc1O[C@@H]1CC[C@@H](C)N(C(=O)c2ncccc2-c2cscn2)C1" ?
Return: N

Enquiry: Reported pIC50 reaches at least 6 for "CCOc1ccccc1C(=O)N1C[C@H](Oc2nccc(C#N)c2C)CC[C@H]1C" ?
Return: N

Enquiry: Reported pIC50 reaches at least 6 for "Cc1c(C#N)ccnc1O[C@@H]1CC[C@@H](C)N(C(=O)c2ccsc2-c2nccs2)C1" ?
Return: N

Enquiry: Reported pIC50 reaches at least 6 for "Cc1c(C#N)ccnc1O[C@@H]1CC[C@@H](C)N(C(=O)c2ccccc2Oc2ccccc2)C1" ?
Return: N
